Values from the NIST ThermoML archive (doi:10.1021/je700282w)

Assay: activity coefficient (dimensionless); of the first substance listed, at infinite dilution; xn = mol fraction of the nth substance listed
Conditions: 303.15 K; 101 kPa; Liquid; Chromatography; x1 = 0
Metric: activity coefficient

CCCCCCCCC [nonane] + CCCCn1cc[n+](C)c1.O=S(=O)([O-])C(F)(F)F
122
CC1CCCCC1 [methylcyclohexane] + CCCCn1cc[n+](C)c1.O=S(=O)([O-])C(F)(F)F
30.2
C1=CCCCC1 [cyclohexene] + CCCCn1cc[n+](C)c1.O=S(=O)([O-])C(F)(F)F
10.9

(A) CCCCCCCCCC [decane] + CCCCn1cc[n+](C)c1.O=S(=O)([O-])C(F)(F)F
(B) c1ccccc1 [benzene] + CCCCn1cc[n+](C)c1.O=S(=O)([O-])C(F)(F)F
-- ask Between these two entries, A and B , state which has the higher activity coefficient. I would appreciate it if you answered with the label of your choice.
-- reply A
